# testSystem: 5-hydroxytryptamine receptor 2C (Homo sapiens)
# Sequence (P28335 whole entry): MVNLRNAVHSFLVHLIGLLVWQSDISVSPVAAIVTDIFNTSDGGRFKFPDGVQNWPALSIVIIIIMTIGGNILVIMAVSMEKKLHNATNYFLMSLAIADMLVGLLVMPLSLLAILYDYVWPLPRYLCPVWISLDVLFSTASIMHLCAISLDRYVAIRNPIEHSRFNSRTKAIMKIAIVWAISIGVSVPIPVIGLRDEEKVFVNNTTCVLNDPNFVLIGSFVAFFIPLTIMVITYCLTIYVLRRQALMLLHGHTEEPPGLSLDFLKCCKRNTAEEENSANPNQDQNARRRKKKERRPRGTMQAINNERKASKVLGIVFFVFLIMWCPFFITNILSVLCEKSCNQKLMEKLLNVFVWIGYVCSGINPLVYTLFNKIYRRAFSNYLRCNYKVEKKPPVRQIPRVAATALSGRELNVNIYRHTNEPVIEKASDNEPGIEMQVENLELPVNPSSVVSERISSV
# testProtocol: Agonist activity at recombinant human 5-HT2C receptor expressed in HEK293E cells assessed as induction of intracellular Ca2+ levels after 90 secs by Fluo-4-dye based FLIPR assay
outcomeMeasure: EC50

Observe how each entry below is paired with its result.
>>> endpointvalue("O=C(c1csc(-c2cccc(Cl)c2F)n1)N1CCOCC1")
"1270 to 2400 nM"
>>> endpointvalue("Cc1cccc(-c2nc(C(=O)N3CCOCC3)cs2)c1C")
"501 to 705 nM"
>>> endpointvalue("CCn1nc(-c2cccc3ccccc23)cc1-c1cncn1C")
"3850 to 4390 nM"
>>> endpointvalue("CCn1nc(-c2cccc3ccccc23)cc1-c1ccccn1")
"576 to 613 nM"

The reported value for "CCn1nc(-c2cccc3ccncc23)cc1-c1cccnn1" in terms of EC50 is 13 to 43 nM

In plain terms, "O=C(c1cnc(-c2cccc3ccccc23)s1)N1CCOCC1" has a documented EC50 of 1520 to 2270 nM

Notebook: "Cc1nc(-c2cccc3ccccc23)sc1C(=O)N(C)CCc1cccnc1" , EC50 read as 38 to 39 nM

Value of measured EC50 for the entry "O=C(c1csc(-c2cccc(Cl)c2Cl)n1)N1CCCCC1" : 3100 to 3700 nM

The recorded EC50 for entry "Cc1nc(-c2cccc3ccccc23)sc1C(=O)N1CCNCC1" equals 1040 nM

Entry "COCCN(C)C(=O)c1sc(-c2cccc3ccccc23)nc1C" ; EC50 = 14 nM

Reported EC50 for "CCn1nc(-c2cncc3ccccc23)cc1-c1cccnn1" was 530 nM

For record "Cn1cc(-c2cccc3ccccc23)cc1C(=O)N1CCC(CO)CC1" the listed EC50 is 41 to 45 nM
